Listed compounds paired with reported melting point

{"columns": ["compound", "melting point"],
 "data": [
  ["O=C1NC=C(C(=O)c2ccc(N3CCNCC3)cc2)C(c2ccccc2[N+](=O)[O-])N1 (centres unmarked) [DHPM-2]", "170 to 172 °C"]
]}

Problem: Find the measured melting point of O=C1NC=C(C(=O)c2ccc(N3CCNCC3)cc2)C(c2cccc([N+](=O)[O-])c2)N1 (centres unmarked) [DHPM-4] and report it.
Result: 180 to 182 °C

Problem: Return melting point for the following compound: O=C1NC=C(C(=O)c2ccc(N3CCOCC3)cc2)C(c2cccc(O)c2)N1 (centres unmarked) [DHPM-18]
Result: 120 to 122 °C

Problem: Report melting point for O=C1NC=C(C(=O)c2ccc(N3CCOCC3)cc2)C(c2ccccc2)N1 (centres unmarked) [DHPM-11]
Result: 258 to 260 °C

Problem: State its melting point for this compound: COc1ccccc1C1NC(=O)NC=C1C(=O)c1ccc(N2CCNCC2)cc1 (centres unmarked) [DHPM-6]
Result: 120 to 122 °C

Data provenance: patent US10111873B1
